- measured on: human recombinant VEGF receptor-2 (rhVEGFR-2) (human) (UniProt P35968)
- Sequence (P35968 20-764): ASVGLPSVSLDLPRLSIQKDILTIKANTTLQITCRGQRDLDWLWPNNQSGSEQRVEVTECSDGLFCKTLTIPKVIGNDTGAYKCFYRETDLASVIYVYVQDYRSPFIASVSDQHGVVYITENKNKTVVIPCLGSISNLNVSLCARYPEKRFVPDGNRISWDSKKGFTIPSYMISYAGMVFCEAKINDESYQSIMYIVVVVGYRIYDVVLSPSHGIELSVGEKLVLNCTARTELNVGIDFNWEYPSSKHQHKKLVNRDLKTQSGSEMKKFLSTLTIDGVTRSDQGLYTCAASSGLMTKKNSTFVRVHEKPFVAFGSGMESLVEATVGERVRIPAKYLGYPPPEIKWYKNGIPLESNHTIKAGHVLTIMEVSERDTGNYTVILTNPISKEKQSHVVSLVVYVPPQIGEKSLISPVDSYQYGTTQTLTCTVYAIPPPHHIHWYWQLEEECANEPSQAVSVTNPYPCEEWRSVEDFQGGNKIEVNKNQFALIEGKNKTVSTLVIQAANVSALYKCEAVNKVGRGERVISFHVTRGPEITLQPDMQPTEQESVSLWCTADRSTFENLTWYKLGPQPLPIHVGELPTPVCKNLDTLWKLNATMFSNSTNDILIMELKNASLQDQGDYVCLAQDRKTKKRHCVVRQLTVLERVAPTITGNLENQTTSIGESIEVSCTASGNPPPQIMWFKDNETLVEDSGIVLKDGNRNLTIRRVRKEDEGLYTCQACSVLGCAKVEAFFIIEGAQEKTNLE
- procedure text: SPR; rhVEGFR-2 immobilised on an activated CM5 chip; RLYE at different concentrations flowed in HBS-EP (10 mM Hepes, 150 mM NaCl, 3 mM EDTA, 0.005% Tween-20) at 25 μl/min, 120 sec injection; Kd from a steady state binding model
measured property: pKd
API: returns pKd as number; meaning -log10 of concentration in mol/L.

Respond only with pKd recorded for RLYE [Arg-Leu-Tyr-Glu tetrapeptide (RLYE)]
5.05
